- TARGET ENTITY: Complex IV (cytochrome c oxidase) (Rattus norvegicus, UniProt P00406+P05503)
- Construct: gene Mt-co1; native complex in saponin-permeabilized left ventricular (apex) cardiac fibers; dimer of 13 subunits per monomer; with Cytochrome c oxidase subunit 3; Cytochrome c oxidase subunit 4 isoform 1, mitochondrial; Cytochrome c oxidase subunit 5A, mitochondrial; Cytochrome c oxidase subunit 5B, mitochondrial; Cytochrome c oxidase subunit 6A2, mitochondrial; Cytochrome c oxidase subunit 6B1; Cytochrome c oxidase subunit 6C; Cytochrome c oxidase subunit 7A1, mitochondrial; Cytochrome c oxidase subunit 7B, mitochondrial; Cytochrome c oxidase subunit 7C, mitochondrial; Cytochrome c oxidase subunit 8B, mitochondrial
- ASSAY COMMENT: high-resolution respirometry (O2 consumption), permeabilized cardiac fibers
- Assay type: biochemical
- EXPERIMENTAL CONTEXT: ascorbate 2 mM/TMPD 0.5 mM as complex IV substrates; pH 7.1, 30°C; 1 g/l BSA in medium; Hillslope −1.58
VALUE TYPE: IC50 (µM)
API: value field is a number in µM; no unit string.

Complex IV (cytochrome c oxidase) (Rattus norvegicus, UniProt P00406+P05503) data for CCCCC/C=C\C/C=C\CCCCCCCC(=O)O[C@H](CC(=O)[O-])C[N+](C)(C)C [C18∶2c, cis,cis-9,12-octadecadienoyl-L-carnitine] ; its IC50: 65.6

Each recorded value in this set is attributed to paper PMC3907505.
